# method-description: in vitro
# condition-set: human, CEM/0 cells (wild-type CD4+ T-cells)
quantity-measured: CC50 (µM)
# value in µM; strip the unit string

CCCCCCCCCCCCCCCCCCP(=O)(OCc1ccc(OC(=O)CCCC)cc1)OP(=O)(O)OP(=O)(O)OC[C@H]1O[C@@H](n2cc(/C=C/Br)c(=O)[nH]c2=O)C[C@@H]1O (stereo partly drawn) [10gz] = 43.9
CCCCCCCCCCCCCCCCCCOP(=O)(OCCCC)OP(=O)(O)OP(=O)(O)OC[C@@H]1O[C@H](n2cc(F)c(N)nc2=O)CS1 (stereo partly drawn) [10cv, γ‐(C4;C18)‐FTCTP] = 51.2

Let's switch to this molecule now.
Problem: Which CC50 is reported for this molecule? CCCCCCCCCCCCCCCCCCP(=O)(OCCCC)OP(=O)(O)OP(=O)(O)OC[C@H]1O[C@@H](n2cc(C)c(=O)[nH]c2=O)C[C@@H]1F (stereo partly drawn) [10ex]
Result: 43.6
